# test: qHTS assay for small molecule antagonists of peroxisome proliferator-activated receptor delta signaling (AID 588535);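 further: cells co-treated with a PPAR-delta agonist as stimulator during compound exposure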
# run parameters: HEK293T PPARd-UAS-bla, beta-lactamase FRET ratio, 18 h; 460 nm channel
# Text: NIH Chemical Genomics Center [NCGC] U.S. Environmental Protection Agency [EPA] National Institutes of Environmental Health Sciences [NIEHS] National Toxicology Program [NTP] NCGC Assay Overview The Peroxisome proliferator-activated receptors (PPARs) are lipid-activated transcription factors of the nuclear receptor superfamily with three distinct subtypes namely PPAR alpha, PPAR delta (also called PPAR beta) and PPAR gamma. […]
Records with an inconclusive call do not appear.
reported endpoint: max response (%)
Your answer is read as %, so omit the unit and give the number.

Requested field: max response. Item: CCCCCCCCCCCC(=O)O
12.5

Request: O=C(Nc1ccccc1)c1ccccc1O
-6.49

Request: O=C(/C=C/c1ccc(O)c(O)c1)O[C@@H](C(=O)O)[C@@H](OC(=O)/C=C/c1ccc(O)c(O)c1)C(=O)O
24.1

Request: CCO
-20.9

Request: O=S(=O)(O)c1ccccc1
1.28

Request: C=Cc1ccccc1Cl
-3.33

Request: COc1cc(/C=C/c2ccccc2)oc(=O)c1
-19.2

Request: CCCCCCCCCCCCCCC1CO1 (stereo not given)
14.3

Request: O=C(O)CCCCCCCCC(=O)O
1.66

Request: CN(C)CCCCCCN(C)C
53.3

Request: C=CC(=O)OCCOCCOCCOCCOC(=O)C=C
-103

Request: c1ccc2scnc2c1
3.24

Request: C=CC(=C)CCC=C(C)C
-12.1

Request: C[Si](C)(C)O[Si](C)(C)O[Si](C)(C)C
25.8

Request: C1OCOCO1
2.46

---

# test system: Rap guanine nucleotide exchange factor 3 (Homo sapiens) (UniProt O95398)
# Sequence (O95398 whole entry, looked up): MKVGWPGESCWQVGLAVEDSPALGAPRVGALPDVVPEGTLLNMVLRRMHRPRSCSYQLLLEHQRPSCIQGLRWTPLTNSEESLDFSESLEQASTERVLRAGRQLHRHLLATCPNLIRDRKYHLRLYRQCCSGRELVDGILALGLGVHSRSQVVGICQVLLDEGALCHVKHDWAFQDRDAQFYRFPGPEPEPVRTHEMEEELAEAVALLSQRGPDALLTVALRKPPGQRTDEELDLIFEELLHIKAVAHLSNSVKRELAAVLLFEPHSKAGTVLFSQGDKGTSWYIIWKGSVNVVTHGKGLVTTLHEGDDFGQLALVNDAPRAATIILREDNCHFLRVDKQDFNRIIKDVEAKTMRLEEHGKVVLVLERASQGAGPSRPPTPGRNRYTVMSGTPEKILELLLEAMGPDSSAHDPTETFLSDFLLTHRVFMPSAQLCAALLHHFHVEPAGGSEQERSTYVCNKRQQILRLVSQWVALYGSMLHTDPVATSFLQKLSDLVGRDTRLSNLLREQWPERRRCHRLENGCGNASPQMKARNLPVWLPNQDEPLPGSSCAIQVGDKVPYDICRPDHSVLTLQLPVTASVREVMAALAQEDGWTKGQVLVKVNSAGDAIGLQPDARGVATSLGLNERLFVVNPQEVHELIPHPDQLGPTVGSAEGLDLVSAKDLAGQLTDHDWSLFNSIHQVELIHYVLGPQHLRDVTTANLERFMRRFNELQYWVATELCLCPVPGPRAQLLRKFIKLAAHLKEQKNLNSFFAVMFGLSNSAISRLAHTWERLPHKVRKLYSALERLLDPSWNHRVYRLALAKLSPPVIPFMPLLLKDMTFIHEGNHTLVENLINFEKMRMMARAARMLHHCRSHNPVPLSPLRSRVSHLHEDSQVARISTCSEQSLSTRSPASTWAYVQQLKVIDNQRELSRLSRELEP
# test: Counterscreen qHTS for antagonist of cAMP-regulated guanine nucleotide exchange factor 3 (EPAC1) (AID 1645888);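 further: fluorescence loss as bound BODIPY-GDP is released from Rap1B; % of control where 0% means no effect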
# run parameters: Rap1B-BODIPY-GDP nucleotide exchange, fluorescence; series mostly up to 154 µM
Results filed as inconclusive are left out. The source made the active and inactive calls. The call rests on the fitted dose curve; in most records, active means well fitted inhibition curve with a large enough effect; inconclusive means small, poorly fitted or top-dose-only effect; inactive means no such curve, though single readings can be large or run the other way.
reported endpoint: activity change, negative = inhibition

Consider the reported activity change, negative = inhibition for these compounds:
compound: COc1ccc(-c2csc3nc(C)nc(N4CCCCC4)c23)cc1OC
activity change, negative = inhibition: inactive
//
compound: CN(Cc1cccs1)c1nc(-c2cccnc2)nc2ccccc12
activity change, negative = inhibition: -10.3% [at 30.8 µM] (inactive)
//
compound: N=C1/C(=C\c2ccc(-c3cccc(Cl)c3)o2)C(=O)N=C2SC=C(c3ccccc3)N12
activity change, negative = inhibition: inactive
//
compound: CCC(C)(C)C1CCc2c(sc(NC(=O)c3ccccc3C(=O)O)c2C#N)C1 (configuration not stated)
activity change, negative = inhibition: inactive

Requested field: activity change, negative = inhibition. Item: O=C(C(=Cc1ccccc1)c1ccccc1)c1ccccc1
inactive

---

# test system: Phenylethanolamine N-methyltransferase (Homo sapiens) (UniProt P11086)
# Sequence (P11086 whole entry, looked up): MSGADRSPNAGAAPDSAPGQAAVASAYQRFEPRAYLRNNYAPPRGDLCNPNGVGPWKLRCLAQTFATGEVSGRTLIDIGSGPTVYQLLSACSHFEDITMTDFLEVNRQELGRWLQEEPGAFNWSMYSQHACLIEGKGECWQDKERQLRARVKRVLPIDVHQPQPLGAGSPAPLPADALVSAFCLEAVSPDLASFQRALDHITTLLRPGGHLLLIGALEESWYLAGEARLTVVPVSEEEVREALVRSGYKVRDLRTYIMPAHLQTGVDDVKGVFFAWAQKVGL
# test: Confirmatory Screen for Target Class Profiling of Small Molecule Inhibitors of Methyltransferases (AID 1745852)
# run parameters: MTase-Glo luminescence, SAH detection, recombinant enzyme; measured here: PNMT max response; stronger effect = lower value
Hi! Could you tag entries with activity below -20% as Met, and those at or above as Not met? Much appreciated.

Dear reviewer, please state whether Cn1ncc2c(N3CCN(S(N)(=O)=O)CC3)nc(C3CCCC3)nc21 has activity strictly beneath -20%.
Not met

Request: CCCn1c(=O)c2cc(F)ccc2n2c(SCc3c(F)cccc3Cl)nnc12
Not met

Request: Cc1cnc(C2CCC2)n1C1CCN(C(=O)CCC2CCCC2)CC1
Not met

Request: CC1CCN(CCCNC(=O)CCc2nnc3n(Cc4ccccc4)c(=O)c4ccccc4n23)CC1
Not met

Request: COc1cccc(CN2CCCC3(CNc4ccccc4[S+](=O)([O-])N3)C2)c1 (stereo not given)
Not met

Request: OCC1(Cc2ccccc2)CCCN(Cc2cn[nH]c2-c2ccc(F)cc2)C1 (stereo not given)
Not met

Request: Cc1cc(C)c(NS(=O)(=O)c2ccc3c(c2)n(C)c(=O)n3C)c(C)c1
Not met

Request: COc1ccc(-c2[nH]nc3ncc(C(=O)N4CCC(c5ccccc5)CC4)nc23)c(C)c1
Met

Request: COc1ccc(CCN2C(=O)c3cc4oc(C)cc4n3CC2(C)C(=O)NC2CCCCC2)cc1OC (stereo not given)
Not met

Request: CC(CNC(=O)c1nnn2c1c(=O)[nH]c1cc(F)ccc12)c1ccccc1 (stereo not given)
Not met

Request: CC1CCCCN1CCNC(=O)CCc1nnc2n(Cc3ccc(F)cc3)c(=O)c3ccccc3n12 (stereo not given)
Not met

Request: CCCCN(C)C(=O)c1c(C)sc2ccn(CCC)c(=O)c12
Not met

Request: Cc1ccc(C)c(N2CCN(C(=O)c3ccc4c(=O)[nH]c5c(C(=O)NC(C)C)sc(=S)n5c4c3)CC2)c1
Not met

Request: COc1ccc(N2CCN(C(=O)c3cc(NC(C)=O)cc4nc(C)ccc34)CC2)cc1
Not met

Request: C[S+](=O)([O-])N1CCC(Cn2ccc3c(N4CCOCC4)nc(-c4cccc5[nH]ncc45)cc32)CC1
Met

Request: CC(C)CCn1c(=O)c2ccccc2n2c(CCC(=O)N3CCN(c4ccccc4F)CC3)nnc12
Not met

Request: FC(F)(F)c1ccnc(N2CC[C@H](c3nnc(-c4ccncc4)o3)C2)n1
Not met

Request: Cc1ccc(Cn2c(=O)c3ccccc3n3c(-c4cccc(C)c4)nnc23)cc1
Not met

Request: O=C(NCc1ccc(Cl)cc1)c1ccc2c(=O)[nH]c3c(C(=O)NC4CCCC4)sc(=S)n3c2c1
Met

Request: Cn1c(=O)n(C)c2cc(S(=O)(=O)Nc3ccc(-c4nnc(-c5ccccc5)o4)c(Cl)c3)ccc21
Not met

---

# test system: Rap guanine nucleotide exchange factor 4 (Homo sapiens)
# test: Confirmatory qHTS for antagonist of cAMP-regulated guanine nucleotide exchange factor 4 (EPAC2) (AID 1645885); further: nearly all actives have a fitted effect of over 25% in size
# run parameters: EPAC2 Rap1B-BODIPY-GDP exchange fluorescence, biochemical; series mostly up to 12.7 µM
Records with an inconclusive call do not appear. The source made the active and inactive calls. Calls follow the shape of the dose curve; as a rule, active = well fitted inhibition curve with a large enough effect; inconclusive = small, poorly fitted or top-dose-only effect; inactive = no such curve, though single readings can be large or run the other way.
Respond only with the outcome that fits, drawn from active, inactive

For this molecule, state the assay outcome: CN1/C(=C\C=C2/C(=O)Oc3ccccc3C2=O)C(C)(C)c2ccccc21
inactive

Request: O=C(CC(=O)NC1CCCCC1)N/N=C/c1ccc(Cl)cc1
inactive

Request: O=[N+]([O-])c1ccc(NS(=O)(=O)c2ccccc2)c(Cl)c1
inactive

Request: O=C(Cn1ccc(=O)[nH]c1=O)c1ccc([N+](=O)[O-])o1
inactive

Request: CN(C)c1ccc(C(=O)/C=C/c2ccc(Br)cc2)cc1
inactive

Request: O=C(c1cc(C(F)(F)F)cc(C(F)(F)F)c1)N1CCC2(CCCN(c3ncccn3)C2)CC1
active

Request: Cc1cccc(N2C(=O)C(O)=C(C(=O)c3cccs3)C2c2cccc(Oc3ccccc3)c2)n1 (stereo unspecified)
inactive

Request: Cc1nc2ccccc2n2c(O)c(CC(=O)O)cc12
inactive

Request: COc1ccc2[nH]cc(CCNc3ncncc3-c3ccccc3Cl)c2c1
inactive

Request: CCOc1ccc(S(=O)(=O)Nc2cc(NS(=O)(=O)c3ccc(OCC)cc3)cc(C(=O)O)c2)cc1
inactive

Request: COc1ccc(CCNC2CC(=O)N(CCc3ccc(OC)c(OC)c3)C2=O)cc1 (stereo unspecified)
inactive

Request: O=c1c(/C=C(\O)c2ccccc2)nc2ccccc2n1-c1ccccc1
inactive

Request: Cc1cc(C2(c3ccc(O)c(C)c3)C(=O)N(C)c3ccc(Br)cc32)ccc1O
inactive

Request: COC(=O)Cn1c(CN2CCc3ccccc3C2)nc2c1c(=O)n(C)c(=O)n2C
inactive

Request: CCc1ccc(C(c2ccccc2)c2c(C)[nH]c3ccccc23)s1 (stereo unspecified)
inactive

Request: O=C1C=C(NCc2ccccc2)c2ccccc2C1=O
active

Request: O=C(O)c1cccc(Nc2ccc([N+](=O)[O-])c3nonc23)c1
inactive

Request: CC1=NN(c2cccc(C(=O)O)c2)C(=O)/C1=C\C=C/c1ccccc1
inactive

Request: Cc1cccn2c(=O)c3cc(C#N)c(=NC(=O)c4ccccc4)n(Cc4ccco4)c3nc12
inactive

Request: CN(C)c1ccc(C=C(C#N)C(=O)c2ccccc2)cc1Br
inactive

Request: CCc1nnc(NS(=O)(=O)c2ccc(NC(=S)NC(=O)c3ccc(Br)cc3)cc2)s1
active

---

# test system: Rap guanine nucleotide exchange factor 3 (Homo sapiens) (UniProt O95398)
# test: Confirmatory qHTS for agonist of cAMP-regulated guanine nucleotide exchange factor 3 (EPAC1) (AID 1645881); further: nearly all actives have a fitted effect of over 75% in size;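 on activation: EPAC1 catalysed release of BODIPY-GDP from Rap1B seen as fluorescence loss; 100% = effect of cAMP agonist control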
# run parameters: EPAC1 Rap1B BODIPY-GDP exchange fluorescence; series mostly up to 154 µM
Results filed as inconclusive are left out. Calls of active or inactive are those of the source. Calls follow the shape of the dose curve; as a rule, active = well fitted activation curve with a large enough effect; inconclusive = small, poorly fitted or top-dose-only effect; inactive = no such curve, though single readings can be large or run the other way.
Respond only with the outcome that fits, drawn from 1.0 for active, 0.0 for inactive

For this compound, state the assay outcome: C=CCOC(=O)C1=C(C)NC(C)=C(C(=O)OCC=C)C1c1ccco1
0.0

Request: O=C(Nc1nc(-c2cc(F)ccc2F)cs1)C1=COCCO1
0.0

Request: O=[N+]([O-])c1cc2c(cc1CN1CCN(CCOCCO)CC1)OCO2
0.0

Request: CCc1ccc(NS(=O)(=O)c2cc3c4c(c2)CCN4C(=O)CC3)cc1
0.0

Request: COc1ccc(Cl)cc1NC(=O)c1c(NCc2ccc(C)o2)sc2c1CCCCC2
0.0

Request: COC(=O)c1ccc(CSc2nc3scc(-c4cccs4)c3c(=O)[nH]2)o1
0.0

Request: COC(=O)[C@]12CCCCC=C1N(Cc1ccco1)C(=O)[C@H](CC(=O)NCc1cccs1)C2
0.0

Request: Cc1ccc(Cc2cnc(N3C(=N)SC(c4ccccc4)C3=O)s2)cc1 (configuration not stated)
0.0

Request: Cc1ccc(C2CC(c3cccs3)=NN2C(=O)c2ccco2)o1 (configuration not stated)
0.0

Request: CCOC(=O)Cn1nc(C)c(NC(=O)COc2ccccc2[N+](=O)[O-])c1C
0.0

Request: CCCCn1c(CNC(=O)C23CC4CC(CC(C4)C2)C3)nnc1SCC(=O)Nc1ccc(F)cc1
0.0

Request: Clc1ccc(CSc2nnc(-c3ccccn3)n2Cc2ccco2)cc1Cl
0.0

Request: COc1cc(/C=C2\SC(=O)N(c3cccc(Cl)c3)C2=O)cc([N+](=O)[O-])c1O
0.0

Request: O=[N+]([O-])c1cc2oc3c(c2c(C=NCc2ccncc2)c1O)CCCC3
0.0

Request: CCOC(=O)C1CCCCN1Cc1cccc(Oc2ccccc2)c1 (configuration not stated)
0.0

Request: Cc1ccc2oc(=O)c(/C=C(\O)c3ccco3)nc2c1
1.0

Request: COc1ccc(C(=O)c2nccc3ccccc23)cc1
0.0

Request: O=C(CSC1=NCCS1)N1N=C(c2cccs2)CC1c1ccc(F)cc1 (configuration not stated)
0.0

Request: CC1OC(CC(=O)O)CC2=C1C(=O)c1c(O)cccc1C2=O (configuration not stated)
0.0

Request: CCOc1nc(C)cc(C)c1S(=O)(=O)c1cccc(Cl)c1
0.0

Request: CC1(C)c2ccccc2N(CC(N)=O)C12C=Cc1ccccc1O2 (configuration not stated)
0.0

Request: CCC(C)Cn1c(O)cc2nn(-c3nc4ccccc4s3)c(=O)c-2c1C (configuration not stated)
0.0

Request: Cc1ccc2cccc(Oc3nnnn3-c3ccccc3)c2n1
0.0

Request: CCCOc1ccc(/C(O)=C2/C(=O)C(=O)N(c3ccccn3)C2c2ccc(OC)cc2)cc1C (configuration not stated)
0.0

Request: C/C=C\C=C/C(=O)Nc1cccc(C2=NOC3(C2)C[C@H](C(N)=O)N(C(=O)c2ccc(OC)cc2)C3)c1 (some centres not stated)
0.0

Request: CC(=O)Nc1ccc(S(=O)(=O)N2CCN(c3cc(C)ccc3C)CC2)cc1
0.0

Request: CC(=O)O[C@H]1c2ccccc2-c2ccccc2[C@@H]1OC(C)=O
0.0

Request: O=C(N/N=C/c1ccc(-c2ccc(Cl)c(C(=O)O)c2)o1)c1cc2c(ccc3ccccc32)o1
0.0

Request: O=C(c1ccco1)N(Cc1ccccc1)c1cccc([N+](=O)[O-])c1
0.0

Request: CCc1nc2c(OCc3ccc(C(F)(F)F)cc3)cccn2c1N(C)C(=O)C(C)C
0.0

Request: COc1ccc2sc(-c3ccc(N(C)C)cc3)c(C#CC(C)(C)O)c2c1
0.0

Request: CCOC(=O)C(C)n1nc(-c2ccccc2)c2ccccc2c1=O (configuration not stated)
0.0

Request: CCOc1ccccc1NC(=O)CN1C(=O)COc2ccc(S(=O)(=O)NC3CCCC3)cc21
0.0

Request: COc1ccc(C2=CC3=C(Br)C(=O)C(C)(OC(=O)c4cccs4)C(=O)C3=CO2)cc1 (configuration not stated)
0.0

Request: O=C(O)c1cc(Nc2cc(Cl)c3nonc3c2[N+](=O)[O-])ccc1O
0.0

Request: COC(=O)[C@@H]1CC[C@@](C)(c2ccc(OC)cc2)C1(C)C
0.0

Request: COc1ccc2nc3ccccc3[n+]([O-])c2c1
1.0

Request: Cc1ccc(-c2nnc(Nc3ccc4c(c3)nc(C)n4C)c3ccccc23)cc1
0.0

Request: Cc1cccc(Cn2c(COc3ccccc3)nc3ccccc32)c1
0.0

Request: CC(C)Cc1ccc(CN2C(C(C)C)C(=O)N(Cc3cn(CCC4OCCO4)nn3)CCS2(=O)=O)cc1 (configuration not stated)
0.0

Request: Cc1oc2c(O)c(O)ccc2c(=O)c1-c1cnn(-c2ccccc2)c1
0.0

Request: COc1cccc(/C=N/NC(=O)c2cc3cc([N+](=O)[O-])ccc3s2)c1O
0.0

Hello, the source for this data is PubChem BioAssay (NCATS), in case you need it.
